- Test system: CEM cells HIV-1 protection, formazan growth assay
- assay_protocol: NCI AIDS Antiviral Assay
- study_conditions: measured here: growth of uninfected CEM cells
Record form. Attribute: IC50. Fill in for each entry.

Endpoint output: IC50 of Cc1cn(C(C)OCCO)c(=O)[nH]c1=O (configuration not stated) . Value?
> 200 µM

Endpoint output: IC50 of S=c1ncc2n[nH]nc2[nH]1 . Value?
> 200 µM

Endpoint output: IC50 of CCOC(=O)c1nnc(-c2ccccc2)nc1Cl . Value?
> 200 µM

Endpoint output: IC50 of COc1ccc(C(=O)C(c2ccc(OC)cc2)C2C(=O)Oc3ccccc32)cc1 (configuration not stated) . Value?
> 34.7 µM

Endpoint output: IC50 of CCOC(=O)c1c(NC(=O)c2cccs2)sc2c1CCC2 . Value?
> 200 µM

Endpoint output: IC50 of O=c1ccc2nc3cc(Br)ccc3sc-2c1 . Value?
> 24.5 µM

Endpoint output: IC50 of CC1(C)c2ccccc2N2O[C@@H]3C(=O)N(c4ccccc4)C(=O)[C@@H]3C21c1ccccc1 (some centres not stated) . Value?
> 36.3 µM

Endpoint output: IC50 of C[C@H]1ON2CCC[C@@H]2[C@@H]1C(=O)N1C2CC3CCC2(CS1(=O)=O)C3(C)C (some centres not stated) . Value?
> 200 µM

Endpoint output: IC50 of CC(C)C1=C[C@@]23CCC4C(C)(C)CCC[C@]4(C(=O)O2)C3=CC1=O (some centres not stated) . Value?
> 43.7 µM

Endpoint output: IC50 of O=c1cc2[nH]cnc2c(O)[nH]1 . Value?
> 89.1 µM

Endpoint output: IC50 of CC(C)c1cccc(C(C)C)c1NC(=O)/C(CC(=O)CC(c1ccccc1)c1c(O)c2ccccc2oc1=O)=N/O (configuration not stated) . Value?
> 89.1 µM

Endpoint output: IC50 of COc1ccc(/C=C2\N=C(c3ccccc3)N(N=C3NC(=O)CC(=O)N3)C2=O)cc1 . Value?
> 200 µM

====

- System: CEM cells HIV-1 protection, formazan growth assay
- assay_protocol: NCI AIDS Antiviral Assay
- study_conditions: measured here: growth of uninfected CEM cells
pIC50: −log10 of the molar value.
measured_endpoint: pIC50

Endpoint output: pIC50 of Clc1ccc(CSc2cnnc3ccccc23)cc1 . Value?
< 4.21

Endpoint output: pIC50 of Nc1ccn(CCO)c(=O)n1 . Value?
< 2.79

Endpoint output: pIC50 of CSCCC(NC(=O)OCc1ccccc1)P(=O)(O)c1ccccc1 (stereo not drawn) . Value?
< 3.70

====

Record form. Attribute: log10 IC50. Fill in for each entry.
- Test system: CEM cells HIV-1 protection, formazan growth assay
- assay_protocol: NCI AIDS Antiviral Assay
- study_conditions: measured here: growth of uninfected CEM cells
Field: value | Transform: log10 | Quantity: IC50 | Unit: µM

Endpoint output: log10 IC50 of CN1c2ccccc2C(=O)NC12CCN(Cc1ccccc1)CC2 . Value?
2.08

Endpoint output: log10 IC50 of C/C(=N\NC(=O)c1ccncc1)c1ccccc1F . Value?
2.79

Endpoint output: log10 IC50 of Cc1cc(O)c2c(oc3cc(O)c4c(c32)COC4=O)c1C(=O)O . Value?
1.27

Endpoint output: log10 IC50 of Nc1nc(Cl)cc(OCC2(O)CC(COC(=O)c3ccccc3)C2)n1 (stereo unspecified) . Value?
1.78

Endpoint output: log10 IC50 of O=C1NN(C2=NNC3(C(=O)N2)c2ccccc2-c2ccccc23)C(c2ccccc2)=N/C1=C/c1ccc(O)cc1 . Value?
1.82

Endpoint output: log10 IC50 of N#Cc1cccc(Nc2ccccc2SSc2ccccc2Nc2cccc(C#N)c2)c1 . Value?
0.68

Endpoint output: log10 IC50 of COc1ccc(N=C/C=C/Nc2ccc(OC)cc2)cc1 . Value?
0.87

Endpoint output: log10 IC50 of NCCSSc1ccccc1[N+](=O)[O-] . Value?
1.05

Endpoint output: log10 IC50 of O=C(O)[C@@H]1CSC(c2ccccc2Cl)N1 (stereo partly specified) . Value?
2.15

Endpoint output: log10 IC50 of CCCNC1=C2C[C@@H](C)C[C@@H](OC)[C@@H](OC(=O)CCCN)[C@H](C)/C=C(\C)[C@@H](OC(N)=O)[C@H](OC)/C=C\C=C(/C)C(=O)NC(=CC1=O)C2=O . Value?
1.06

Endpoint output: log10 IC50 of COC1=C(NC(C)=O)C(=O)c2nc3n(c2C1=O)CCC3 . Value?
1.88

Endpoint output: log10 IC50 of O=C(N/C(=C\c1ccc(Cl)cc1)c1nc2ccccc2[nH]1)c1ccccc1 . Value?
1.77

Endpoint output: log10 IC50 of COc1cccc(/C=C2/Sc3sc(C(C)=O)c(C)[n+]3C2=O)c1O . Value?
1.54

Endpoint output: log10 IC50 of CCCCCCCCCCCC(=O)OCC(C[As](=O)(O)O)OC(=O)CCCCCCCCCCC (stereo unspecified) . Value?
0.26

Endpoint output: log10 IC50 of C=C1CN(S(=O)(=O)c2ccc(C)cc2)CCCN(CCC(C)C)CCCN(S(=O)(=O)c2ccc(C)cc2)C1 . Value?
0.01

Endpoint output: log10 IC50 of Cc1cc(NS(=O)(=O)c2ccc(Nc3c4ccccc4nc4c(C(=O)Nc5ccccc5)cccc34)cc2)no1 . Value?
1.02

Endpoint output: log10 IC50 of O=C1CSC(c2ccc([N+](=O)[O-])cc2)N1c1nc(-c2ccc3c(c2)CCCC3)cs1 (stereo unspecified) . Value?
2.42

# credit: PubChem BioAssay AID179
